Entry source: paper PMC4081072

- Subject of test: T1, Nrd1 307-491 WT (Saccharomyces cerevisiae, UniProt P53617 307-491)
- T1 sequence: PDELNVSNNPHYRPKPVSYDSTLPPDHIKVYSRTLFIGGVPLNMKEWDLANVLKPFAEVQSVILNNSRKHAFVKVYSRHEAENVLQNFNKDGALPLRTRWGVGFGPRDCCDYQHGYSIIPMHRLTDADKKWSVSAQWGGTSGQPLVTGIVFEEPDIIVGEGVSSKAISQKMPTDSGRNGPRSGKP
- Procedure summary: fluorescence anisotropy; FA: 10 nM RNA, 50 mM sodium phosphate pH 8, 150 mM NaCl, 10 mM beta-mercaptoethanol, 20 C (protein stock in 300 mM NaCl); NMR: same buffer with 300 mM NaCl, 20
- Condition summary: protein: recombinant; tags: C-terminal His6; label: 5' fluorescein or TAMRA
Here, each record is paired with measured pKd data.
Scale for pKd: -log10 of concentration given in mol/L; no unit attached.

CACACAC (ssRNA) :: 3.96
AGCGUGAAUUAAGUCUUGAUAUAUAA (ssRNA) [win78dNrd1] :: 5.60
GUAAUGAAUUAAGUCUUGAUAUAUAA (ssRNA) [win78wt] :: 5.82
GUUGUUG (ssRNA) :: 4.89
CCCCUGAAUUAAGCCCCCCCCCCCCC (ssRNA) [win78polyC] :: 5.14

Report pKd, nothing else, for this binder: UGGA (ssRNA)
4.03

Report pKd, nothing else, for this binder: AGCGUGAAUUAAGUCUUGCACACACA (ssRNA) [win78dNrd1dAUrichCA]
5.27
